compounds and their reported Plant response rating, Barley, Spring
System: barley, spring (spring barley, Hordeum vulgare)
protocol details: Test D controlled growth environment herbicide test, pre- and postemergence
Type: in vivo
study conditions: postemergence, 62 g ai/ha; scale 0 to 100, 0 no effect, 100 complete control
Text: […]

Some solved cases for reference:
compound	endpoint value
Cc1ccc(-c2c(O)c(Br)nn(C)c2=O)c2ccccc12 [Compound 52]	0
CCC(=O)Oc1c(C)nn(C)c(=O)c1-c1c(C)sc2ccc(C)cc12 [Compound 42]	0
CC(=O)Oc1c(C)nn(C)c(=O)c1-c1ccc(F)c2ccccc12 [Compound 90]	25
CC(=O)Oc1c(C)nn(C)c(=O)c1-c1c(C)sc2ccc(C)cc12 [Compound 25]	0

-- ask // returns reported Plant response rating, Barley, Spring for input Cc1ccc2ccccc2c1-c1c(O)c(C)nn(C)c1=O [Compound 59]
-- reply 30
